# Tested on: KM12
# measurement-notes: NCI tumour cell line growth inhibition, 48 h
Active and inactive are the calls of the source. Cut-off read from the data, not from the text of the source: active = GI50 up to about 1.1 µM and inactive = higher.
Your reply should match one of these outcome classes. true (1) (active), false (0) (inactive)

Examples from the recorded data:
C=C(CN1CC2C[C@](C(=O)OC)(c3cc4ccccc4[nH]3)C1C(OC)C2OC)S(=O)(=O)c1ccccc1 (stereo partly specified)	false (0)
CN1CCN(c2ccc([N+](=O)[O-])c3no[n+]([O-])c23)CC1	true (1)
O=C(CC1(O)C(=O)Nc2c(Cl)ccc(Cl)c21)c1ccc(F)cc1 (stereo unspecified)	false (0)
O=C(CC(C(=O)c1cccs1)c1cccs1)c1ccccc1Cl (stereo unspecified)	false (0)
CN(C)CCS/C(=N\c1ccccc1)n1cccc1	false (0)
COc1ccc(NC(=O)CC(=O)N/N=C(\C)c2cc3ccccc3oc2=O)cc1	false (0)
C=CCC1C(=O)CC2(C)CC(=O)C(CC=C)C12C (stereo unspecified)	false (0)
c1ccc(CSC(SCc2ccccc2)c2cccc3ccccc23)cc1	false (0)
O=C(CC(=O)C(=O)Nc1ccccc1)CC(c1ccccc1)c1c(O)c2ccccc2oc1=O (stereo unspecified)	false (0)
CCc1oc2ccccc2c1C(=O)c1cc(Br)c(O)c(Br)c1	false (0)

**Q:** GET /call?item= N#CCCN(CCC#N)c1ccc(C(/N=N/c2ccccc2)=N\c2ccccc2)cc1 returns the recorded outcome of this test.
**A:** false (0)

**Q:** GET /call?item= CC1CCC/C1=C(/I)C(=O)c1ccccc1 (stereo unspecified) returns the recorded outcome of this test.
**A:** false (0)

**Q:** GET /call?item= CCN(CC)C(=S)SS(=O)(=O)c1ccc(F)cc1 returns the recorded outcome of this test.
**A:** false (0)

**Q:** GET /call?item= CC1(C)CC(=O)c2c(nc3c(ccc4ccccc43)c2-c2ccc(NC(=O)CCCCC(=O)Nc3ccc(-c4c5c(nc6c4ccc4ccccc46)CC(C)(C)CC5=O)cc3)cc2)C1 returns the recorded outcome of this test.
**A:** false (0)

**Q:** GET /call?item= COC(=O)C(=O)C(C(=O)C(=O)Nc1ccccc1[N+](=O)[O-])c1nc2ccc([N+](=O)[O-])cc2nc1O (stereo unspecified) returns the recorded outcome of this test.
**A:** false (0)

----------
# Test system: LOX IMVI
# measurement-notes: NCI tumour cell line growth inhibition, 48 h
Active and inactive are the calls of the source. Cut-off read from the data, not from the text of the source: active = GI50 up to about 1.1 µM and inactive = higher.
measurement-type: GI50

CC(C)(C)C1=C(Br)C(O)(C(C)(C)C)OP1(=O)c1ccccc1 (centres undefined)	> 100 µM (inactive)
Cc1c2c(c(C)c3c[n+](C)ccc13)Oc1ccccc1O2	22.3 µM (inactive)
CC(C)N(C(=O)C12C3C4C1(I)C1C2C3(I)C41C(=O)N(C(C)C)C(C)C)C(C)C (centres undefined)	> 43.5 µM (inactive)
Cn1c2ccccc2n2c3ncccc3/c(=N/CCCC(=O)O)c(C#N)c12	> 100 µM (inactive)
CCn1c2ccc(C(=O)CCCN3CCCCC3)cc2c2cc(C(=O)CCCN3CCCCC3)ccc21	1.86 µM (inactive)
O=C(NC12CC3CC(CC(C3)C1)C2)n1cnc2c(Cl)ncnc21	18.7 µM (inactive)
NC1CCCCC1.O=P(O)(O)C(CSc1ccccc1)P(=O)(O)O	> 100 µM (inactive)
C=CCc1cc(-c2cc(CC=C)c(O)c(CN(CCCl)CCCl)c2)cc(CN(CCCl)CCCl)c1O	10.3 µM (inactive)
COc1nc(NC2OC(COC(C)=O)C(OC(C)=O)C(OC(C)=O)C2OC(C)=O)c(/N=C/C=N/c2c(NC3OC(COC(C)=O)C(OC(C)=O)C(OC(C)=O)C3OC(C)=O)nc(OC)[nH]c2=O)c(=O)[nH]1 (centres undefined)	> 100 µM (inactive)
CC1C(O)Oc2cc3c(cc2C1c1ccccc1O)OCO3 (centres undefined)	31.6 µM (inactive)

**Q:** Which GI50 value is on record for CNC(=O)C1(N)c2ccccc2C=Cc2ccccc21 ?
**A:** > 100 µM (inactive)

**Q:** Which GI50 value is on record for OC(CC(CC(O)(C(F)(F)F)C(F)(F)F)=NN=C(CC(O)(C(F)(F)F)C(F)(F)F)CC(O)(C(F)(F)F)C(F)(F)F)(C(F)(F)F)C(F)(F)F ?
**A:** > 10 µM (inactive)

**Q:** Which GI50 value is on record for COc1cc(NCc2ccc3n2-c2ccccc2OC3)cc(OC)c1OC ?
**A:** 10.4 µM (inactive)

**Q:** Which GI50 value is on record for COc1ccc(NC(=O)CC/C(CC(=O)c2ccccc2Cl)=N\Nc2nnc(C)n2N)cc1 ?
**A:** > 100 µM (inactive)

----------
# System: COLO 205
# measurement-notes: NCI tumour cell line growth inhibition, 48 h
Active and inactive are the calls of the source. Rule as the data show it: active = GI50 up to about 1.1 µM and inactive = higher.
measurement-type: GI50

**Q:** Which GI50 value is on record for CCN(CC)CCCC(C)Nc1cc(-c2ccccc2)nc2cc(OC)ccc12 (configuration not stated) ?
**A:** 2.91 µM (inactive)

**Q:** Which GI50 value is on record for CC(OP(=O)(O)O)C(N)C(=O)O (configuration not stated) ?
**A:** > 100 µM (inactive)

**Q:** Which GI50 value is on record for O=c1[nH]nc(-c2ccccc2)n1/N=C/c1ccc([N+](=O)[O-])o1 ?
**A:** 4.15 µM (inactive)

**Q:** Which GI50 value is on record for CSc1ncnc2c1cnn2Cc1cn(COCCO)nn1 ?
**A:** 33.9 µM (inactive)

**Q:** Which GI50 value is on record for CC1(C)OP(=O)(O)CC1=O ?
**A:** > 100 µM (inactive)

**Q:** Which GI50 value is on record for NCCCNCCCCN(CCCN)/[N+]([O-])=N\O ?
**A:** > 100 µM (inactive)

**Q:** Which GI50 value is on record for C(=N\c1ccc(-c2nc3ccccc3s2)cc1)/c1ccco1 ?
**A:** 87.3 µM (inactive)

**Q:** Which GI50 value is on record for CC(C)(C)[Si](C)(C)OCc1cccc(OCCOc2cccc(CO[Si](C)(C)C(C)(C)C)c2[N+](=O)[O-])c1[N+](=O)[O-] ?
**A:** > 100 µM (inactive)

**Q:** Which GI50 value is on record for COc1ccc2c(c1)CCc1c-2n(CCN2CCCCC2)c2ccc(OC)cc12 ?
**A:** > 100 µM (inactive)

**Q:** Which GI50 value is on record for O=C1C2=Cc3ccccc3OC2(O)Oc2cc(O)ccc21 (configuration not stated) ?
**A:** > 100 µM (inactive)

**Q:** Which GI50 value is on record for C=CCNC(=S)N/N=C1\C(=O)Nc2ccc([N+](=O)[O-])cc21 ?
**A:** 92 µM (inactive)

**Q:** Which GI50 value is on record for CSC1=N/C(=C\c2cccs2)C(=O)N1CN1CCOCC1 ?
**A:** 45.5 µM (inactive)

**Q:** Which GI50 value is on record for CCN1C(=O)c2ccccc2C1(O)c1ccc(Cl)cc1 (configuration not stated) ?
**A:** 35.6 µM (inactive)

**Q:** Which GI50 value is on record for Nc1nc(SCCC/C=C/B(O)O)nc2c1ncn2C1OC(COP(=O)(O)O)C(O)C1O (configuration not stated) ?
**A:** > 203 µM (inactive)

**Q:** Which GI50 value is on record for C[N+]1(C)CC[N+](C)(C)[BH-]1C(O)O ?
**A:** > 100 µM (inactive)

**Q:** Which GI50 value is on record for C=C1CC(C)(COc2ccc3c(C)cc(=O)oc3c2)OC1=O (configuration not stated) ?
**A:** 0.951 µM (active)

**Q:** Which GI50 value is on record for C/C(=C\COc1ccc2ccc(=O)oc2c1)C1=CC(=O)C(C)(C)O1 ?
**A:** 4.14 µM (inactive)

**Q:** Which GI50 value is on record for Cc1ccc(C(=O)C#Cc2cnc(O)nc2O)cc1 ?
**A:** 13 µM (inactive)

----------
# System: MCF7
# measurement-notes: NCI tumour cell line growth inhibition, 48 h
The source made the active and inactive calls. Rule as the data show it: active = GI50 up to about 1.1 µM and inactive = higher.
Your reply should match one of these outcome classes. 1 for active, -1 for inactive

Examples from the recorded data:
CCOC(=O)CSc1c(C(=O)OCC)c(=O)n(-c2ccccc2)c(=S)n1-c1ccccc1	-1
c1ccc2c(c1)nc1n2sc2nc3ccccc3n21	-1

**Q:** GET /call?item= O=C1CS(=O)(=O)C(c2cccc(Oc3ccccc3)c2)N1c1cccc(Cl)c1Cl (stereo not given) returns the recorded outcome of this test.
**A:** -1

**Q:** GET /call?item= C[C@@H]1C[C@H]2[C@@H]3CCC4=CC(=O)C=C[C@]4(C)[C@@]3(Cl)[C@@H](Cl)C[C@]2(C)[C@@]1(O)C(=O)COP(=O)(O)O returns the recorded outcome of this test.
**A:** -1

**Q:** GET /call?item= COc1cc(/C=C2\C(=O)N(c3ccc(NC(C)=O)cc3)C(c3ccccc3)S2(=O)=O)cc(OC)c1OC (stereo not given) returns the recorded outcome of this test.
**A:** -1

Origin of values: ChEMBL document CHEMBL1201862
